Recorded values, source ChEMBL document CHEMBL4808200.

- assay-remarks: Permeability of the compound at pH 7.4 by artificial membrane permeability assay
- Assay type: ADME
- stated-conditions: PAMPA, read-out: permeability
endpoint: Papp (×10⁻⁶ cm/s)

a: CNC(=O)c1cc(C(N)=O)cc(Cc2ccccc2)n1
b: CNC(=O)c1cc(C(=O)NC2CC2)cc([C@@H](O)c2ccccc2)n1
c: CNC(=O)c1cc(C(=O)N[C@H]2C[C@@H]2C)cc(C(OC)c2ccccc2)n1 (stereo partly specified)
d: CNC(=O)c1cc(C(=O)N[C@H]2[C@@H]3C[C@@H](O)C[C@@H]32)cc([C@@H](C)c2ccccc2)n1
e: CNC(=O)c1cc(C(=O)NC2CC2)cc(Cc2cccc3[nH]ccc23)n1
### Prompt I'd appreciate it if you could rank the molecules mentioned above by Papp, largest value first. // rank by listing labels in the order requested
### Response c, e, a, d, b
(c: 56 ×10⁻⁶ cm/s, e: 30.5 ×10⁻⁶ cm/s, a: 21 ×10⁻⁶ cm/s, d: 13 ×10⁻⁶ cm/s, b: 7.15 ×10⁻⁶ cm/s)

P: CNC(=O)c1cc(C(=O)NC2CC2)cc(Cc2cccc3c2CCN3)n1.Cl
Q: CNC(=O)c1cc(C(=O)NC2CC2)cc([C@@H](C)c2ccccc2)n1
R: CNC(=O)c1cc(C(=O)N[C@H]2[C@@H]3C[C@H](O)C[C@@H]32)cc([C@@H](C)c2ccccc2)n1
### Prompt Arrange these 3 molecules in increasing order of Papp. // rank by listing labels in the order requested
### Response P, R, Q

P: CNC(=O)c1cc(C(=O)N[C@H]2[C@@H]3COC[C@@H]32)cc(C(CC#N)c2ccccc2)n1 (stereo partly specified)
Q: CNC(=O)c1cc(C(=O)NC(C)C)cc(Cc2ccccc2)n1
R: CNC(=O)c1cc(C(=O)N[C@H]2[C@@H]3C[C@@H](O)C[C@@H]32)cc(Cc2ccccc2)n1
S: CNC(=O)c1cc(C(=O)N[C@H]2[C@@H]3COC[C@@H]32)cc([C@@H](C)c2ccccc2)n1
### Prompt Sequence the entries by Papp, beginning with the highest number. // rank by listing labels in the order requested
### Response Q, S, P, R
(Q: 57 ×10⁻⁶ cm/s, S: 37 ×10⁻⁶ cm/s, P: 20 ×10⁻⁶ cm/s, R: 7.1 ×10⁻⁶ cm/s)
